target: CDK5 CDK5R1 p35 (human) (UniProt Q00535+Q15078); test: radiometric filter-binding kinase assay, Kinase HotSpot; conditions: compound 0.5 µM; ATP 10 µM
Experimental readout: residual activity (%)
Write the number in % without appending the unit.

Sample answers from the record:
[[record]]
compound_smiles = "CN(C)S(=O)(=O)c1ccc2c(c1)/C(=C/c1cc3c([nH]1)CCCC3)C(=O)N2"
experimental_system = "CDK5 CDK5R1 p35 (human) (UniProt Q00535+Q15078)"
endpoint_unit = "%"
numeric_result = 76.9

[[record]]
compound_smiles = "Cc1cncc2cccc(S(=O)(=O)N3CCCN(C(=O)CN)C[C@H]3C)c12"
experimental_system = "CDK5 CDK5R1 p35 (human) (UniProt Q00535+Q15078)"
endpoint_unit = "%"
numeric_result = 97.4

[[record]]
compound_smiles = "COc1ccc2c(c1)/C(=C/c1cnc[nH]1)C(O)=N2"
experimental_system = "CDK5 CDK5R1 p35 (human) (UniProt Q00535+Q15078)"
endpoint_unit = "%"
numeric_result = -0.369

[[record]]
compound_smiles = "CS(=O)(=O)CCNCc1ccc(-c2ccc3ncnc(Nc4ccc(OCc5cccc(F)c5)c(Cl)c4)c3c2)o1"
experimental_system = "CDK5 CDK5R1 p35 (human) (UniProt Q00535+Q15078)"
endpoint_unit = "%"
numeric_result = 103

[[record]]
compound_smiles = "COc1cc2ncnc(Nc3ccc(OCc4ccccc4)cc3)c2cc1OC"
experimental_system = "CDK5 CDK5R1 p35 (human) (UniProt Q00535+Q15078)"
endpoint_unit = "%"
numeric_result = 103


Response field residual activity (CDK5 CDK5R1 p35 (human) (UniProt Q00535+Q15078)) for item COc1ccc2c(c1)c(C1=C(c3c[nH]c4ccccc34)C(=O)NC1=O)cn2CCCN(C)C : 81.4

Lab note: molecule Cc1nc(-c2ccccc2)c(-c2ccncc2)o1 tested on CDK5 CDK5R1 p35 (human) (UniProt Q00535+Q15078); recorded residual activity was 104

Summary: Fc1ccc(-c2nc3n(c2-c2ccncc2)CCS3)cc1 , CDK5 CDK5R1 p35 (human) (UniProt Q00535+Q15078), residual activity = 97.8

Entry Cc1cccc(-c2nc(C(C)(C)C)[nH]c2-c2ccc3c(c2)OCO3)n1 : residual activity on CDK5 CDK5R1 p35 (human) (UniProt Q00535+Q15078) = 98.5

Observed residual activity, CDK5 CDK5R1 p35 (human) (UniProt Q00535+Q15078), O=C1C(Cl)=C(N2C(=O)CCC2=O)C(=O)c2ccccc21 : 93.7

Result for O=C1c2ccccc2-c2nc3nnnn3nc21 , tested on CDK5 CDK5R1 p35 (human) (UniProt Q00535+Q15078), residual activity: 79.1

Observed residual activity, CDK5 CDK5R1 p35 (human) (UniProt Q00535+Q15078), c1ccc2c(-c3ccncc3)c[nH]c2c1 : 96

The reported residual activity value, CDK5 CDK5R1 p35 (human) (UniProt Q00535+Q15078), for O=C1NC(=O)c2c1c1c3ccccc3[nH]c1n1cncc21 reads 67

CDK5 CDK5R1 p35 (human) (UniProt Q00535+Q15078) assay, molecule NCCNc1ncc(C(N)=O)c(Nc2cccc(C(F)(F)F)c2)n1 , recorded residual activity = 84.2

Assay CDK5 CDK5R1 p35 (human) (UniProt Q00535+Q15078), sample COc1ccc(C(=O)Nc2sc3c(c2C(N)=O)CCCC3)cc1OC , residual activity read: 90.8

For the molecule CN(C)c1ccc(/C=C2\C(=O)Nc3ccccc32)cc1 , the measured residual activity on CDK5 CDK5R1 p35 (human) (UniProt Q00535+Q15078) was 104
